# Tested on: human APOE RNA
# experiment summary: Dose-dependent inhibition of human APOE RNA in differentiated SH-SY5Y cells, free uptake, 5 days (Example 5)
# Type: cell-based
# setup conditions: 1,280 nM, 5 days (Table 14)
Strand notation (5' to 3'): a small letter for the sugar, then the base; units joined by * are phosphorothioate-linked, units joined directly phosphodiester-linked; [ ] holds rarer units or linkages, { } end groups; capitals alone tell only the bases. [ms] = mesyl phosphoramidate linkage; e = 2'-O-(2-methoxyethyl) (MOE); k = constrained ethyl (cEt); [5mC] = 5-methylcytosine; d = 2'-deoxy (DNA)
Decide using APOE RNA (% UTC): a value greater than or equal to 30 % UTC is 1, a smaller one is 0.

- substance: "1757575 (eA*e[5mC]eTeT*kG*kG*dT*dG[ms]dA[ms]dA[ms]dT*d[5mC]*dT*dT*dT*dA[ms]kT*eT*eA*eA; antisense) [Compound 1757575]"
  label: 0
- substance: "1785599: modified oligonucleotide complementary to human APOE RNA (k[5mC]*kT*kT*dG[ms]dG[ms]dT[ms]dG[ms]dA[ms]dA[ms]dT[ms]d[5mC]*dT*dT*dT*dA*dT*kT*kA*dA[ms]kA; antisense) [compound 1785599]"
  label: 0
- substance: "1778131: modified oligonucleotide complementary to human APOE RNA (eA*e[5mC]eTeTeGkG*dT*dG[ms]dA[ms]dA*dT*d[5mC]*dT*dT*dT*dA[ms]kTkT*eA*eA; antisense) [compound 1778131]"
  label: 1
- substance: "1778111: modified oligonucleotide complementary to human APOE RNA (eA*e[5mC]eTeTeG*kG*dT*dG[ms]dA[ms]dA*dT*d[5mC]*dT*dT*dT*dA[ms]eTeT*eA*eA; antisense) [compound 1778111]"
  label: 1
- substance: "1746804 (k[5mC]*kT*kT*dG[ms]dG[ms]dT[ms]dG[ms]dA[ms]dA[ms]dT*d[5mC]*dT*dT*dT*dA[ms]dT*dT[ms]kA*kA*kA; antisense) [Compound 1746804]"
  label: 1
- substance: "Aes^mCeoTeoTesGesGksTdsGdzAdzAdzTds^mCdsTdsTdsTdsAdzTksTksAesAe (eA*e[5mC]eTeT*eG*kG*dT*dG[ms]dA[ms]dA[ms]dT*d[5mC]*dT*dT*dT*dA[ms]kT*kT*eA*eA) [Compound No. 1757576]"
  label: 0
- substance: "1746809 (k[5mC]*dT[ms]kT*dG[ms]kG*dT[ms]dG[ms]dA[ms]dA[ms]dT*d[5mC]*dT*dT*dT*dA[ms]dT*dT[ms]kA*kA*kA; antisense) [Compound 1746809]"
  label: 1
- substance: "1785598: modified oligonucleotide complementary to human APOE RNA (k[5mC]*kT*kT*dG[ms]dG[ms]dT[ms]dG[ms]dA[ms]dA[ms]dT*d[5mC]*dT*dT*dT*dA*dT[ms]kT*kA*dA[ms]kA; antisense) [compound 1785598]"
  label: 0
- substance: "1778130: modified oligonucleotide complementary to human APOE RNA (eA*e[5mC]eTeTeG*kG*dT*dG[ms]dA[ms]dA*dT*d[5mC]*dT*dT*dT*dA[ms]kTkT*eA*eA; antisense) [compound 1778130]"
  label: 1
